System: chronic lymphocytic leukemia (CLL) samples classified by expression subtype (Ec-i, EC-m1, EC-m2, EC-m3, EC-m4, EC-o, EC-u1, EC-u2)
protocolText: Ex-vivo drug sensitivity (percent viability) of CLL samples compared between expression subtypes (ECs); note: test concentration or dose not given here
Assay type: cell-based
particulars: all ECs other than EC-m1
Each entry below carries its reported Mean viability in the other ECs.
I only need the number, thanks.

Would you please look over these solved cases?
COc1cc2nc(-c3cc(F)ccc3O)nc(N[C@@H]3CNC[C@H]3C(C)(C)O)c2cc1OC : 1.06
COc1cc(N2CCC(N3CCN(C)CC3)CC2)ccc1Nc1ncc(Cl)c(Nc2ccccc2S(=O)(=O)C(C)C)n1 : 1.01
CC(C)c1cc(C(=O)N2Cc3ccc(CN4CCN(C)CC4)cc3C2)c(O)cc1O : 0.72
NC1(c2ccc(-c3nc4ccn5c(=O)[nH]nc5c4cc3-c3ccccc3)cc2)CCC1 : 1.00

Please turn your attention to the following entry.
Mean viability in the other ECs measured on CN1CCC(CNc2ccc3ncc(-c4cccc(OC(F)(F)F)c4)n3n2)CC1 = 1.03

====

Test system: chronic lymphocytic leukemia (CLL) samples classified by expression subtype (Ec-i, EC-m1, EC-m2, EC-m3, EC-m4, EC-o, EC-u1, EC-u2)
protocolText: Ex-vivo drug sensitivity (percent viability) of CLL samples compared between expression subtypes (ECs); note: test concentration or dose not given here
Type: cell-based
particulars: expression cluster EC-i
observable: Mean viability in the EC
I only need the number, thanks.

Would you please look over these solved cases?
C=C(C)[C@H]1Cc2c(ccc3c2O[C@@H]2COc4cc(OC)c(OC)cc4[C@@H]2C3=O)O1 : 0.63
CN1CCN(CCOc2cc(OC3CCOCC3)c3c(Nc4c(Cl)ccc5c4OCO5)ncnc3c2)CC1 : 1.13
Cn1cnc2c(F)c(Nc3ccc(Br)cc3Cl)c(C(=O)NOCCO)cc21 : 0.97

Mean viability in the EC measured on COc1cc(Nc2ncc(F)c(Nc3ccc4c(n3)NC(=O)C(C)(C)O4)n2)cc(OC)c1OC = 1.07

====

Each entry below carries its reported Mean viability in the other ECs.
System: chronic lymphocytic leukemia (CLL) samples classified by expression subtype (Ec-i, EC-m1, EC-m2, EC-m3, EC-m4, EC-o, EC-u1, EC-u2)
protocolText: Ex-vivo drug sensitivity (percent viability) of CLL samples compared between expression subtypes (ECs); note: test concentration or dose not given here
Type: cell-based
particulars: all ECs other than EC-m3
I only need the number, thanks.

C[C@H](Nc1ncnc2[nH]cnc12)c1cc2cccc(Cl)c2c(=O)n1-c1ccccc1 : 0.88
NC(=O)Nc1cc(-c2cccc(F)c2)sc1C(=O)N[C@H]1CCCNC1 : 0.82
COc1cc(Nc2ncc(F)c(Nc3ccc4c(n3)NC(=O)C(C)(C)O4)n2)cc(OC)c1OC : 1.04

Please turn your attention to the following entry.
Mean viability in the other ECs measured on C[C@@H]1CN(CC(=O)Nc2ccc3c(c2)Cc2cccc(-c4cc(=O)cc(N5CCOCC5)o4)c2S3)C[C@H](C)O1 = 0.97

====

Test system: chronic lymphocytic leukemia (CLL) samples classified by expression subtype (Ec-i, EC-m1, EC-m2, EC-m3, EC-m4, EC-o, EC-u1, EC-u2)
protocolText: Ex-vivo drug sensitivity (percent viability) of CLL samples compared between expression subtypes (ECs); note: test concentration or dose not given here
Format: cell-based
particulars: all ECs other than EC-m4
Each entry below carries its reported Mean viability in the other ECs.
I only need the number, thanks.

Cn1cnc2c(F)c(Nc3ccc(Br)cc3Cl)c(C(=O)NOCCO)cc21 : 0.92

Mean viability in the other ECs measured on NC(=O)Nc1cc(-c2cccc(F)c2)sc1C(=O)N[C@H]1CCCNC1 = 0.80

Mean viability in the other ECs measured on CC(C)c1cc(C(=O)N2Cc3ccc(CN4CCN(C)CC4)cc3C2)c(O)cc1O = 0.70

Mean viability in the other ECs measured on CN(C)C/C=C/C(=O)Nc1cc2c(Nc3ccc(F)c(Cl)c3)ncnc2cc1O[C@H]1CCOC1 = 1.09

====

Each entry below carries its reported Mean viability in the EC.
Tested on: chronic lymphocytic leukemia (CLL) samples classified by expression subtype (Ec-i, EC-m1, EC-m2, EC-m3, EC-m4, EC-o, EC-u1, EC-u2)
protocolText: Ex-vivo drug sensitivity (percent viability) of CLL samples compared between expression subtypes (ECs); note: test concentration or dose not given here
Type: cell-based
particulars: expression cluster EC-m3
I only need the number, thanks.

Would you please look over these solved cases?
CC(C)c1cc(C(=O)N2Cc3ccc(CN4CCN(C)CC4)cc3C2)c(O)cc1O [AT13387] : 0.81
NC(=O)Nc1cc(-c2cccc(F)c2)sc1C(=O)N[C@H]1CCCNC1 [AZD7762] : 0.95

Mean viability in the EC measured on C/C1=C\[C@@H](C)C/C=C/[C@H]2[C@@H]3O[C@]3(C)[C@@H](C)[C@H]3[C@H](Cc4c[nH]c5ccccc45)NC(=O)[C@]32C(=O)/C=C/C(=O)[C@@H]1O [chaetoglobosin A] = 0.98

Mean viability in the EC measured on C[C@H](Nc1ncnc2[nH]cnc12)c1cc2cccc(Cl)c2c(=O)n1-c1ccccc1 [duvelisib] = 0.95

====

Each entry below carries its reported Mean viability in the EC.
Test system: chronic lymphocytic leukemia (CLL) samples classified by expression subtype (Ec-i, EC-m1, EC-m2, EC-m3, EC-m4, EC-o, EC-u1, EC-u2)
protocolText: Ex-vivo drug sensitivity (percent viability) of CLL samples compared between expression subtypes (ECs); note: test concentration or dose not given here
Type: cell-based
particulars: expression cluster EC-m3
I only need the number, thanks.

Mean viability in the EC measured on C[C@@H]1CN(CC(=O)Nc2ccc3c(c2)Cc2cccc(-c4cc(=O)cc(N5CCOCC5)o4)c2S3)C[C@H](C)O1 = 1.00

Mean viability in the EC measured on COc1cc2nc(-c3cc(F)ccc3O)nc(N[C@@H]3CNC[C@H]3C(C)(C)O)c2cc1OC = 1.09

Mean viability in the EC measured on C=CCn1c(=O)c2cnc(Nc3ccc(N4CCN(C)CC4)cc3)nc2n1-c1cccc(C(C)(C)O)n1 = 1.04

====

System: chronic lymphocytic leukemia (CLL) samples classified by expression subtype (Ec-i, EC-m1, EC-m2, EC-m3, EC-m4, EC-o, EC-u1, EC-u2)
protocolText: Ex-vivo drug sensitivity (percent viability) of CLL samples compared between expression subtypes (ECs); note: test concentration or dose not given here
Type: cell-based
particulars: expression cluster EC-m4
observable: Mean viability in the EC
I only need the number, thanks.

Would you please look over these solved cases?
CC(C)c1cc(C(=O)N2Cc3ccc(CN4CCN(C)CC4)cc3C2)c(O)cc1O [AT13387] : 0.81
NC1(c2ccc(-c3nc4ccn5c(=O)[nH]nc5c4cc3-c3ccccc3)cc2)CCC1 [MK-2206] : 1.04
Cn1cnc2c(F)c(Nc3ccc(Br)cc3Cl)c(C(=O)NOCCO)cc21 [selumetinib] : 0.97
COc1cc(Nc2ncc(F)c(Nc3ccc4c(n3)NC(=O)C(C)(C)O4)n2)cc(OC)c1OC [tamatinib] : 1.09
CC[C@H](Nc1ncnc2nc[nH]c12)c1nc2cccc(F)c2c(=O)n1-c1ccccc1 [idelalisib] : 0.99
C[C@H](Nc1ncnc2[nH]cnc12)c1cc2cccc(Cl)c2c(=O)n1-c1ccccc1 [duvelisib] : 0.94

Mean viability in the EC measured on C=C(C)[C@H]1Cc2c(ccc3c2O[C@@H]2COc4cc(OC)c(OC)cc4[C@@H]2C3=O)O1 [rotenone] = 0.67

Mean viability in the EC measured on COc1cc(N2CCC(N3CCN(C)CC3)CC2)ccc1Nc1ncc(Cl)c(Nc2ccccc2S(=O)(=O)C(C)C)n1 [TAE684] = 1.04

Mean viability in the EC measured on CC(C)(C)c1cnc(CSc2cnc(NC(=O)C3CCNCC3)s2)o1 [SNS-032] = 0.66

Mean viability in the EC measured on CN(C)C/C=C/C(=O)Nc1cc2c(Nc3ccc(F)c(Cl)c3)ncnc2cc1O[C@H]1CCOC1 [afatinib] = 1.02

Mean viability in the EC measured on NC(=O)Nc1cc(-c2cccc(F)c2)sc1C(=O)N[C@H]1CCCNC1 [AZD7762] = 0.98

Mean viability in the EC measured on C=CC(=O)Nc1cccc(Nc2nc(Nc3ccc(OCCOC)cc3)ncc2F)c1 [spebrutinib] = 1.01

====

Test system: chronic lymphocytic leukemia (CLL) samples classified by expression subtype (Ec-i, EC-m1, EC-m2, EC-m3, EC-m4, EC-o, EC-u1, EC-u2)
protocolText: Ex-vivo drug sensitivity (percent viability) of CLL samples compared between expression subtypes (ECs); note: test concentration or dose not given here
Type: cell-based
particulars: all ECs other than EC-m4
observable: Mean viability in the other ECs
I only need the number, thanks.

C=C(C)[C@H]1Cc2c(ccc3c2O[C@@H]2COc4cc(OC)c(OC)cc4[C@@H]2C3=O)O1 [rotenone] : 0.77
COc1cc(Nc2ncc(F)c(Nc3ccc4c(n3)NC(=O)C(C)(C)O4)n2)cc(OC)c1OC [tamatinib] : 1.03

Mean viability in the other ECs measured on CC(C)(C)c1cnc(CSc2cnc(NC(=O)C3CCNCC3)s2)o1 [SNS-032] = 0.73

Mean viability in the other ECs measured on C=CC(=O)Nc1cccc(Nc2nc(Nc3ccc(OCCOC)cc3)ncc2F)c1 [spebrutinib] = 0.95
